Species: Rattus norvegicus
Test: Open TG-GATES - Regimen: Single
Format: toxicity, organism-based, Sprague-Dawley
Set-up: regimen Single, gender Male, age 6 weeks
Conditions: in vivo, po, 0 mg/kg, 3 h, tissue Blood, route gavage, dose level Control
endpoint_name: MCHC (%)
Quick reminder: number only, in %, skip the unit.

compound	MCHC [%]
Cc1ccc(C)c(OCCCC(C)(C)C(=O)O)c1 [GEMFIBROZIL]	34.9
COc1cc2c(c(OC)c1OC)-c1ccc(OC)c(=O)cc1[C@@H](NC(C)=O)CC2 [COLCHICINE]	33.1
CCOC(=O)CCC(=O)O[C@H]1[C@H](O[C@@H]2[C@@H](C)[C@H](O[C@H]3C[C@@](C)(OC)[C@@H](O)[C@H](C)O3)[C@@H](C)C(=O)O[C@H](CC)[C@@](C)(O)[C@H](O)[C@@H](C)C(=O)[C@H](C)C[C@@]2(C)O)O[C@H](C)C[C@@H]1N(C)C [ERYTHROMYCIN ETHYLSUCCINATE]	32.9

Here is another compound to look at.
What the record says about O=C(CCCN1CCC(O)(c2ccc(Cl)cc2)CC1)c1ccc(F)cc1 [HALOPERIDOL] : MCHC is 33.5

###

Organism: Rattus norvegicus
Test: Open TG-GATES - Regimen: Daily Repeat
Type: toxicity, organism-based, Sprague-Dawley
Design: regimen Daily Repeat, gender Male, age 6 weeks
Conditions: in vivo, po, 1000 mg/kg, […], tissue Plasma, route gavage, dose level High, time 28 day
The following compounds are shown together with reported K values.
Numbers only here, please. The scale is meq/L.

Would you please look over these solved cases?
> print(dat)
                                   compound  unit.tag  meas.value
1  CCOc1ccc(NC(=O)CC(C)O)cc1 (stereo not drawn)     meq/L           4
2  COC1=CC(=O)C[C@@H](C)[C@]12Oc1c(Cl)c(OC)cc(OC)c1C2=O     meq/L         3.7

Proceed to the following item.
Lab note: measured K of COc1ccc2[nH]c([S+]([O-])Cc3ncc(C)c(OC)c3C)nc2c1 (stereo not drawn) was 3.9

###

Species: Rattus norvegicus
Assay: Open TG-GATES - Regimen: Single
Assay type: toxicity, organism-based, Sprague-Dawley
Parameters: regimen Single, gender Male, age 6 weeks
Settings: in vivo, po, 0 mg/kg, 24 h, tissue Plasma, route gavage, dose level Control
Reported IP values for a set of compounds
Respond with the bare value in mg/dL.

Below: 3 compounds and their reported IP.
> print(dat)
                                   compound  meas.value
1  CCOc1ccc(NC(=O)CC(C)O)cc1 (centres undefined) [BUCETIN]         7.9
2  CN(C)CCCN1c2ccccc2CCc2ccc(Cl)cc21 [CLOMIPRAMINE]         8.2
3  CC/C(=C(\c1ccccc1)c1ccc(OCCN(C)C)cc1)c1ccccc1 [TAMOXIFEN]         7.8

Now for a further compound.
IP recorded for this compound, C[C@@H]1C[C@H]2[C@@H]3CCC4=CC(=O)C=C[C@]4(C)[C@@]3(F)[C@@H](O)C[C@]2(C)[C@@]1(O)C(=O)CO [DEXAMETHASONE] , is 8

###

Organism: Rattus norvegicus
Assay: Open TG-GATES - Regimen: Daily Repeat
Type: toxicity, organism-based, Sprague-Dawley
Set-up: regimen Daily Repeat, gender Male, age 6 weeks
Conditions: in vivo, po, 0 mg/kg, 72 h, tissue Kidney, route gavage, dose level Control, time 3 day
Listed here: items and their measured KIDNEY_L.
Value expressed in g; do not type the unit.

Solved entries (count: 3):
compound	meas_value
CCOC(=O)CCC(=O)O[C@H]1[C@H](O[C@@H]2[C@@H](C)[C@H](O[C@H]3C[C@@](C)(OC)[C@@H](O)[C@H](C)O3)[C@@H](C)C(=O)O[C@H](CC)[C@@](C)(O)[C@H](O)[C@@H](C)C(=O)[C@H](C)C[C@@]2(C)O)O[C@H](C)C[C@@H]1N(C)C [ERYTHROMYCIN ETHYLSUCCINATE]	1.1
CN1C(=O)CN=C(c2ccccc2)c2cc(Cl)ccc21	1.1
COC1=CC(=O)C[C@@H](C)[C@]12Oc1c(Cl)c(OC)cc(OC)c1C2=O	0.9

Now take the following compound into account.
Consider "O=C(CCCN1CCC(O)(c2ccc(Cl)cc2)CC1)c1ccc(F)cc1" . Its measured KIDNEY_L is 1
